# key: entry, value: Kd
Molecular target: T1, monkey C5-mmh (monkey, UniProt P01031 19-1676 (human entry), limits assumed)
T1 construct: Expressed with a C-terminal myc-myc-hexahistidine tag
T1 chain: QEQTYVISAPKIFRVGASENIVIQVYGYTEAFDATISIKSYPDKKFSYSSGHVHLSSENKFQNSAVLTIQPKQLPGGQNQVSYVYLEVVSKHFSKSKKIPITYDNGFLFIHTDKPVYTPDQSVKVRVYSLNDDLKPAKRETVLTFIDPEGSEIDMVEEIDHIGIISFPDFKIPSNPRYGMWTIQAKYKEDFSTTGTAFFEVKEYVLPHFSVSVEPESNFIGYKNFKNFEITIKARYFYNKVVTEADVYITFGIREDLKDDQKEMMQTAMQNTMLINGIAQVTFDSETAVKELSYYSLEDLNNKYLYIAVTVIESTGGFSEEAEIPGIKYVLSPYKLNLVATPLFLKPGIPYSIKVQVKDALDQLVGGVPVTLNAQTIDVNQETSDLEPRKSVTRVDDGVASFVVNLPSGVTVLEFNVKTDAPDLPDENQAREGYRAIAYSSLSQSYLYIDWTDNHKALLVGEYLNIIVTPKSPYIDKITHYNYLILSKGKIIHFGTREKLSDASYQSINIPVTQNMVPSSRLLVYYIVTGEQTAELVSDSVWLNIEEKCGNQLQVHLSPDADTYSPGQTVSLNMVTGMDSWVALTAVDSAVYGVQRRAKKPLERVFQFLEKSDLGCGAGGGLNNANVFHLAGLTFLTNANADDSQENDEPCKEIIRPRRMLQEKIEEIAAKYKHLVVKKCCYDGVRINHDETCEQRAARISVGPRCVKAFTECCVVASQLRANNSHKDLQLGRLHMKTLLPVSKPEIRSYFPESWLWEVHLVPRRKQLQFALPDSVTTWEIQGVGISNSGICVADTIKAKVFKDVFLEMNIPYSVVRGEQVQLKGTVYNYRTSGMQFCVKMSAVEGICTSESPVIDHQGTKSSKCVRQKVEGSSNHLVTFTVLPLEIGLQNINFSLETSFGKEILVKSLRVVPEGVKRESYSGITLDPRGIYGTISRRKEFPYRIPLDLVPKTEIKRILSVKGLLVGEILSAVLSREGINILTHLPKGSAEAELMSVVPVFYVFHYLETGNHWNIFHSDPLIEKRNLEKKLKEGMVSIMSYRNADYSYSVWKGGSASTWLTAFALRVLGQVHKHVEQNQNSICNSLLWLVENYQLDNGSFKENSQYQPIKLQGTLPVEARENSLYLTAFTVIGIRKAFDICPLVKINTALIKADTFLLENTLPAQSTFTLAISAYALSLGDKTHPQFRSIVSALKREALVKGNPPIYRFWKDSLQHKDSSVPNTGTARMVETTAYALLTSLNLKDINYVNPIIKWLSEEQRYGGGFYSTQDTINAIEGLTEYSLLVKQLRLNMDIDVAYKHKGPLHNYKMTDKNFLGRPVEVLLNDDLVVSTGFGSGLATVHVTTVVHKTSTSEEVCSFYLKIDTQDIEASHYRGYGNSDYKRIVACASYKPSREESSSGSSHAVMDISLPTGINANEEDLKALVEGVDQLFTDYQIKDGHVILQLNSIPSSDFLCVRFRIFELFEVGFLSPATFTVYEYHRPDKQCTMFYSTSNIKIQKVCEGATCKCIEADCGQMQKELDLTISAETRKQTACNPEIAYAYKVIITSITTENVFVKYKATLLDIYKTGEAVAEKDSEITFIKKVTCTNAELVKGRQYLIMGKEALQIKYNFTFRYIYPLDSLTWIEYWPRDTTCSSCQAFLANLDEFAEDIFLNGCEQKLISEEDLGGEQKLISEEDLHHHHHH
Test: SPR, mAb captured by anti-hFc, 25C
All answers are understood in nM, so give the number only.

Some solved entries appear below for comparison.
INSERT INTO results (binder, experimental_value) VALUES
  ('H4H12164P (antibody, human IgG4, V domains shown) VH: EVQLVESGGGLVRSGGSLRLSCAASGFTFNRYAMTWVRQAPGKGLEWVSAISGSGSSTYYTDSVKGRFTISRDNSKNSVDLQMHSLRVEDTAIYYCARGTTVTTGYGMDVWGQGTTVTVSS VL: DIQMTQSPSSLSASVGDRVTFTCQASQDITNSLNWYQQKPGRAPKLLIYDASYLKAGVPSRFSGSGSGTDFTFTISSLQPEDIATYYCQQYDDLPYTFGQGTKLEIK', 12),
  ('H4H12163P (antibody, human IgG4, V domains shown) VH: EVQLVESGGDLVQPGGSLRLSCAASGFTFSSYAMNWVRQGPGKGLEWVSAISGRGDSTYYADSVKGRLTISRDNSKNTLYLQMNSLRAEDTAVYYCVKEGEQLVYWYFDLWGRGTLVTVSS VL: DIQMTQSPSSLSASVGDRVTITCRASQTISNFLHWYQQKPGKAPKLLIYAASSLQSGVPSRFSGSGSGTDFTLTISSLQPEDFSTYFCQQSYTTPLTFGGGTKVEIK', 2.49);

Alright, here's another binder for you.
Exercise: Fill in: Kd of H4H12166P9 (antibody, human IgG4, V domains shown, human IgG4 Fc with S108P hinge mutation) VH: QVQLQESGPGLVKPSETLSLTCTVSGDSVSSSYWTWIRQPPGKGLEWIGYIYYSGSSNYNPSLKSRATISVDTSKNQFSLKLSSVTAADTAVYYCAREGNVDHTMIFDYWGQGTLVTVSS VL: AIQMTQSPSSLSASVGDRVTITCRASQGIRNDLGWYQQKPGKAPKLLIYAASSLQSGVPSRFAGRGSGTDFTLTISSLQPEDFATYYCLQDFNYPWHFGQGTKVEIK is ___
Key: 18.7
